details: in n-propyl acetate, 288.24 K
Measured Property: solubility (mole fraction)

Query CC(C)(Oc1ccc(CCNC(=O)c2ccc(Cl)cc2)cc1)C(=O)O yields solubility (mole fraction) of 0.000548

====

details: in isopentanol, 288.56 K
Measured Property: solubility (mole fraction)
Give your answer as a number; write no unit.

Query CC(C)(Oc1ccc(CCNC(=O)c2ccc(Cl)cc2)cc1)C(=O)O yields solubility (mole fraction) of 0.00196

====

conditions: in isopropanol, 323.2 K
Measured Property: solubility (mole fraction)
Give your answer as a number; write no unit.

Query CC(C)(Oc1ccc(CCNC(=O)c2ccc(Cl)cc2)cc1)C(=O)O yields solubility (mole fraction) of 0.00852

====

details: in n-propyl acetate, 313.18 K
Measured Property: solubility (mole fraction)
Give your answer as a number; write no unit.

Query CC(C)(Oc1ccc(CCNC(=O)c2ccc(Cl)cc2)cc1)C(=O)O yields solubility (mole fraction) of 0.00146

====

conditions: in methyl propionate, 318.16 K
Measured Property: solubility (mole fraction)

Query CC(C)(Oc1ccc(CCNC(=O)c2ccc(Cl)cc2)cc1)C(=O)O yields solubility (mole fraction) of 0.00182

====

settings: in 2-butanone, 318.17 K
Measured Property: solubility (mole fraction)

Query CC(C)(Oc1ccc(CCNC(=O)c2ccc(Cl)cc2)cc1)C(=O)O yields solubility (mole fraction) of 0.0058

====

settings: in isobutanol, 298.24 K
Measured Property: solubility (mole fraction)
Give your answer as a number; write no unit.

Query CC(C)(Oc1ccc(CCNC(=O)c2ccc(Cl)cc2)cc1)C(=O)O yields solubility (mole fraction) of 0.0026

====

details: in ethanol, 303.24 K
Measured Property: solubility (mole fraction)

Query CC(C)(Oc1ccc(CCNC(=O)c2ccc(Cl)cc2)cc1)C(=O)O yields solubility (mole fraction) of 0.00465

====

conditions: in n-propanol, 318.35 K
Measured Property: solubility (mole fraction)
Give your answer as a number; write no unit.

Query CC(C)(Oc1ccc(CCNC(=O)c2ccc(Cl)cc2)cc1)C(=O)O yields solubility (mole fraction) of 0.00856

====

settings: in isobutanol, 313.23 K
Measured Property: solubility (mole fraction)
Give your answer as a number; write no unit.

Query CC(C)(Oc1ccc(CCNC(=O)c2ccc(Cl)cc2)cc1)C(=O)O yields solubility (mole fraction) of 0.00489

====

settings: in n-propyl acetate, 293.16 K
Measured Property: solubility (mole fraction)

Query CC(C)(Oc1ccc(CCNC(=O)c2ccc(Cl)cc2)cc1)C(=O)O yields solubility (mole fraction) of 0.000665

====

details: in n-butyl acetate, 308.16 K
Measured Property: solubility (mole fraction)

Query CC(C)(Oc1ccc(CCNC(=O)c2ccc(Cl)cc2)cc1)C(=O)O yields solubility (mole fraction) of 0.000948

====

settings: in n-pentanol, 298.5 K
Measured Property: solubility (mole fraction)
Give your answer as a number; write no unit.

Query CC(C)(Oc1ccc(CCNC(=O)c2ccc(Cl)cc2)cc1)C(=O)O yields solubility (mole fraction) of 0.00408

====

details: in isobutanol, 318.17 K
Measured Property: solubility (mole fraction)
Give your answer as a number; write no unit.

Query CC(C)(Oc1ccc(CCNC(=O)c2ccc(Cl)cc2)cc1)C(=O)O yields solubility (mole fraction) of 0.00603

====

conditions: in n-pentanol, 317.95 K
Measured Property: solubility (mole fraction)

Query CC(C)(Oc1ccc(CCNC(=O)c2ccc(Cl)cc2)cc1)C(=O)O yields solubility (mole fraction) of 0.00857

====

settings: in acetonitrile, 313.22 K
Measured Property: solubility (mole fraction)
Give your answer as a number; write no unit.

Query CC(C)(Oc1ccc(CCNC(=O)c2ccc(Cl)cc2)cc1)C(=O)O yields solubility (mole fraction) of 0.000625

====

conditions: in acetonitrile, 318.23 K
Measured Property: solubility (mole fraction)

Query CC(C)(Oc1ccc(CCNC(=O)c2ccc(Cl)cc2)cc1)C(=O)O yields solubility (mole fraction) of 0.000809

====

details: in sec-butanol, 313.17 K
Measured Property: solubility (mole fraction)

Query CC(C)(Oc1ccc(CCNC(=O)c2ccc(Cl)cc2)cc1)C(=O)O yields solubility (mole fraction) of 0.00766

====

details: in isobutanol, 292.93 K
Measured Property: solubility (mole fraction)
Give your answer as a number; write no unit.

Query CC(C)(Oc1ccc(CCNC(=O)c2ccc(Cl)cc2)cc1)C(=O)O yields solubility (mole fraction) of 0.00203

====

details: in isobutanol, 323.2 K
Measured Property: solubility (mole fraction)
Give your answer as a number; write no unit.

Query CC(C)(Oc1ccc(CCNC(=O)c2ccc(Cl)cc2)cc1)C(=O)O yields solubility (mole fraction) of 0.00742

====

conditions: in acetonitrile, 323.24 K
Measured Property: solubility (mole fraction)
Give your answer as a number; write no unit.

Query CC(C)(Oc1ccc(CCNC(=O)c2ccc(Cl)cc2)cc1)C(=O)O yields solubility (mole fraction) of 0.00103

====

conditions: in isobutanol, 282.95 K
Measured Property: solubility (mole fraction)

Query CC(C)(Oc1ccc(CCNC(=O)c2ccc(Cl)cc2)cc1)C(=O)O yields solubility (mole fraction) of 0.00115

====

details: in 2-butanone, 308.14 K
Measured Property: solubility (mole fraction)
Give your answer as a number; write no unit.

Query CC(C)(Oc1ccc(CCNC(=O)c2ccc(Cl)cc2)cc1)C(=O)O yields solubility (mole fraction) of 0.00436

====

details: in 2-butanone, 298.16 K
Measured Property: solubility (mole fraction)
Give your answer as a number; write no unit.

Query CC(C)(Oc1ccc(CCNC(=O)c2ccc(Cl)cc2)cc1)C(=O)O yields solubility (mole fraction) of 0.00312

====

settings: in methanol, 313.13 K
Measured Property: solubility (mole fraction)
Give your answer as a number; write no unit.

Query CC(C)(Oc1ccc(CCNC(=O)c2ccc(Cl)cc2)cc1)C(=O)O yields solubility (mole fraction) of 0.00614

====

settings: in n-butanol, 308.14 K
Measured Property: solubility (mole fraction)
Give your answer as a number; write no unit.

Query CC(C)(Oc1ccc(CCNC(=O)c2ccc(Cl)cc2)cc1)C(=O)O yields solubility (mole fraction) of 0.00599

====

details: in methanol, 323.12 K
Measured Property: solubility (mole fraction)
Give your answer as a number; write no unit.

Query CC(C)(Oc1ccc(CCNC(=O)c2ccc(Cl)cc2)cc1)C(=O)O yields solubility (mole fraction) of 0.00917

====

details: in isopropanol, 283.06 K
Measured Property: solubility (mole fraction)
Give your answer as a number; write no unit.

Query CC(C)(Oc1ccc(CCNC(=O)c2ccc(Cl)cc2)cc1)C(=O)O yields solubility (mole fraction) of 0.00146

====

settings: in sec-butanol, 303.16 K
Measured Property: solubility (mole fraction)
Give your answer as a number; write no unit.

Query CC(C)(Oc1ccc(CCNC(=O)c2ccc(Cl)cc2)cc1)C(=O)O yields solubility (mole fraction) of 0.0053

====

settings: in isopropanol, 308.16 K
Measured Property: solubility (mole fraction)
Give your answer as a number; write no unit.

Query CC(C)(Oc1ccc(CCNC(=O)c2ccc(Cl)cc2)cc1)C(=O)O yields solubility (mole fraction) of 0.00462

====

settings: in ethyl acetate, 293.16 K
Measured Property: solubility (mole fraction)
Give your answer as a number; write no unit.

Query CC(C)(Oc1ccc(CCNC(=O)c2ccc(Cl)cc2)cc1)C(=O)O yields solubility (mole fraction) of 0.000789

====

details: in methyl propionate, 303.23 K
Measured Property: solubility (mole fraction)
Give your answer as a number; write no unit.

Query CC(C)(Oc1ccc(CCNC(=O)c2ccc(Cl)cc2)cc1)C(=O)O yields solubility (mole fraction) of 0.001

====

settings: in n-propanol, 303.33 K
Measured Property: solubility (mole fraction)
Give your answer as a number; write no unit.

Query CC(C)(Oc1ccc(CCNC(=O)c2ccc(Cl)cc2)cc1)C(=O)O yields solubility (mole fraction) of 0.00517

====

settings: in sec-butanol, 318.16 K
Measured Property: solubility (mole fraction)
Give your answer as a number; write no unit.

Query CC(C)(Oc1ccc(CCNC(=O)c2ccc(Cl)cc2)cc1)C(=O)O yields solubility (mole fraction) of 0.00914

====

conditions: in isopropanol, 293.19 K
Measured Property: solubility (mole fraction)
Give your answer as a number; write no unit.

Query CC(C)(Oc1ccc(CCNC(=O)c2ccc(Cl)cc2)cc1)C(=O)O yields solubility (mole fraction) of 0.00245

====

details: in methyl propionate, 283.19 K
Measured Property: solubility (mole fraction)

Query CC(C)(Oc1ccc(CCNC(=O)c2ccc(Cl)cc2)cc1)C(=O)O yields solubility (mole fraction) of 0.000428

====

conditions: in acetonitrile, 293.24 K
Measured Property: solubility (mole fraction)
Give your answer as a number; write no unit.

Query CC(C)(Oc1ccc(CCNC(=O)c2ccc(Cl)cc2)cc1)C(=O)O yields solubility (mole fraction) of 0.000202
